Sourced from patent US8450479B2

Provide the reported GI50 of each item.
System: Glioma U373V (MGMT low)
assay_notes: MTT assay for 7-day toxicity assay
Format: cell-based
conditions_used: Glioma U373V (MGMT low); 7-day MTT; single determinations; read-out: GI50
Description: The cell culture techniques were carried out in a Class II microbiological safety cabinet which was swabbed with 70% IMS in distilled water before each use. […] MRC-5 cells were cultured in EMEM. Cells were grown in a humidified incubator containing 5% CO2 at 37° C. […] After incubation at 37° C., 5% CO2 for 7 days (or immediately for the day 0 plate), cell viability was quantified using the MTT assay. […] The intensity of absorbance is directly proportional to cell viability.
Reply with just the number (in µM).

GI50 measured on `NC(=O)c1ncn2c(=O)n(Cc3cccs3)nnc12` = 81.4

The recorded GI50 for `COC(=O)Cn1nnc2c(C(N)=O)ncn2c1=O` is 11.6

Form: molecule = `CN(C)C(=O)Cn1nnc2c(C(N)=O)ncn2c1=O` ; GI50 = 77.8
